TARGET ENTITY: LCK (Homo sapiens)
Sequence (P06239 whole entry): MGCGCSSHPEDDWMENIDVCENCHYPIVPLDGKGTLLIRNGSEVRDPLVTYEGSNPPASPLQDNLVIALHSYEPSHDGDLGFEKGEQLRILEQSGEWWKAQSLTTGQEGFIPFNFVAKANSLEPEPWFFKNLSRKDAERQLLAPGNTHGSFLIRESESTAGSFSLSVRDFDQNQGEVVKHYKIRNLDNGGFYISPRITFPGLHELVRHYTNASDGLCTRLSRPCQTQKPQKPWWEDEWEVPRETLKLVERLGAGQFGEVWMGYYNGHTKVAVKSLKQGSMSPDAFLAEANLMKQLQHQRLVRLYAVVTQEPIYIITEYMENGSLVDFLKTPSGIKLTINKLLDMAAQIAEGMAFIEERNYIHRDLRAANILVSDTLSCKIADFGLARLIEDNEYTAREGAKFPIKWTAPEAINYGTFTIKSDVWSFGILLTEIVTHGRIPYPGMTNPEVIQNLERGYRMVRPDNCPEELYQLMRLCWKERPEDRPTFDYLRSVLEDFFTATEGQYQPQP
EXPERIMENTAL PROTOCOL: Inhibition of a panel of kinases, in vitro HotSpot kinase assay: LCK
Type: biochemical
MEASUREMENT CONDITIONS: Table 10, Formula A-I; 1 μM ATP; read-out: LCK (IC50)
Where a name gives a salt, the structure may show the parent alone.
TEST READOUT: IC50

INSERT INTO measurements (compound, reported_measurement) VALUES
  ('CN(C)c1ccc(C(=O)N[C@@H]2CCCN(c3cnc(C(N)=O)c(Nc4ccc(C5CCN(C6CCCC6)CC5)cc4)n3)C2)cc1 [Example A-7, hydrochloride]', '100 to 1000 nM');

Attention now shifts to the item below.
Measured IC50 of CC(C)c1ccc(Nc2nc(N3CCC(C(N)=O)CC3)nnc2C(N)=O)cc1 [Example A-91] : > 10000 nM
